The following molecules are listed with their measured AC50 values.
# targetEntity: Cytochrome P450 2C19 (Homo sapiens, UniProt P33261)
# Sequence (P33261 whole entry): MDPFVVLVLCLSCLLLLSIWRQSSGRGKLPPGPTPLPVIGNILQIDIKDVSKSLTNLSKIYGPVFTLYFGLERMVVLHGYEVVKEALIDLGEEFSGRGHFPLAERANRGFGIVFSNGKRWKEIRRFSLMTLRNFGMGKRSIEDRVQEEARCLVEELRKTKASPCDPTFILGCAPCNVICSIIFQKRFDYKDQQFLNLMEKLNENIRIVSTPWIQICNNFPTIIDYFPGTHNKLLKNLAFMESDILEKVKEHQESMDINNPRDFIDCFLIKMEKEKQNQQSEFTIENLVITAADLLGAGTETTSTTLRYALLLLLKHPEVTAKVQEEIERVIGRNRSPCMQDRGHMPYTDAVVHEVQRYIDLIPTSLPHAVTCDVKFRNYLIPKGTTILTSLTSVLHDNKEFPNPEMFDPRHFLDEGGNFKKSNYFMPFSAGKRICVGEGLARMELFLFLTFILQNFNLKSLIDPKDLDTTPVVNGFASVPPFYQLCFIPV
# assay: Cytochrome panel assay with activity outcomes. Panel member name: p450-cyp2c19 Compounds with AC50 equal or less than 10 uM are considered active
# Format: functional
# measurementSetup: read-out: AC50
readoutType: AC50

>  <molecule>
Cc1ccc(C2=C(Cl)C(=O)C(c3ccc(C)cc3)=C(Cl)C2=O)cc1

>  <obsValue>
3.98 µM (inconclusive)

$$$$
>  <molecule>
O=c1c(CCc2ccccc2)nc2cnc(Oc3ccccc3)nc2n1C[C@H]1CCCO1

>  <obsValue>
39.8 µM (inconclusive)

$$$$
>  <molecule>
O=C(O)C1C2CCC(C2)C1C(=O)NCc1ccco1 (stereo not given)

>  <obsValue>
7.94 µM (inconclusive)

$$$$
>  <molecule>
COc1ccccc1CNc1nc(-c2ccccc2CN(C)C)nc2ccccc12

>  <obsValue>
25.1 µM (inconclusive)

$$$$
>  <molecule>
CCCc1nnc(SCC(=O)N2CCCCC2C)n1CCCOC (stereo not given)

>  <obsValue>
39.8 µM (inconclusive)

$$$$

====

# targetEntity: Tyrosyl-DNA phosphodiesterase 2 (Homo sapiens, UniProt O95551)
# Sequence (O95551 whole entry): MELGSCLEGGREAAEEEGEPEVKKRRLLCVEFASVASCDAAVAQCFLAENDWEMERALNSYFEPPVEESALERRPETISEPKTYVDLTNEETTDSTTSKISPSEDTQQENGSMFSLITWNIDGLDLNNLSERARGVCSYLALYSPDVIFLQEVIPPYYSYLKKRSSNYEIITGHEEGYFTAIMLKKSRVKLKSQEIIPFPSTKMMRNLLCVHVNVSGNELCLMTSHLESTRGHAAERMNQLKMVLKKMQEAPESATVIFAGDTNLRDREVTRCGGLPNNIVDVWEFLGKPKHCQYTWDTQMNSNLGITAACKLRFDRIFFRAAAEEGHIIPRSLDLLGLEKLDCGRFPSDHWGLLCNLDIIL
# assay: potency against TDP2 phosphodiesterase activity – biochemical, epi absorbance, IC50, dose response (AID 743297)
Calls of active or inactive are those of the source.
Labels: TRUE (active), FALSE (inactive)

>  <smilesRecord>
CC1=NN(c2ccc(C)c(C)c2)C(=O)/C1=C/c1ccc2c(c1)n(C)c(=O)n2C

>  <classLabel>
FALSE

$$$$
>  <smilesRecord>
CCCC(=O)NC1=C(Cl)C(=O)c2ccccc2C1=O

>  <classLabel>
FALSE

$$$$
>  <smilesRecord>
Cc1ccccc1NC1=C/C(=N\S(=O)(=O)c2ccc(C(=O)O)cc2)c2ccccc2C1=O

>  <classLabel>
TRUE

$$$$
>  <smilesRecord>
CCCCn1c(NC(=O)c2ccco2)c(C(=O)OCC)c2nc3ccccc3nc21

>  <classLabel>
FALSE

$$$$
>  <smilesRecord>
Cc1ccc(NC2=C/C(=N/S(=O)(=O)c3cccs3)c3ccccc3C2=O)cc1

>  <classLabel>
TRUE

$$$$

====

# targetEntity: UniProt Q9H0H5
# Sequence (Q9H0H5 whole entry): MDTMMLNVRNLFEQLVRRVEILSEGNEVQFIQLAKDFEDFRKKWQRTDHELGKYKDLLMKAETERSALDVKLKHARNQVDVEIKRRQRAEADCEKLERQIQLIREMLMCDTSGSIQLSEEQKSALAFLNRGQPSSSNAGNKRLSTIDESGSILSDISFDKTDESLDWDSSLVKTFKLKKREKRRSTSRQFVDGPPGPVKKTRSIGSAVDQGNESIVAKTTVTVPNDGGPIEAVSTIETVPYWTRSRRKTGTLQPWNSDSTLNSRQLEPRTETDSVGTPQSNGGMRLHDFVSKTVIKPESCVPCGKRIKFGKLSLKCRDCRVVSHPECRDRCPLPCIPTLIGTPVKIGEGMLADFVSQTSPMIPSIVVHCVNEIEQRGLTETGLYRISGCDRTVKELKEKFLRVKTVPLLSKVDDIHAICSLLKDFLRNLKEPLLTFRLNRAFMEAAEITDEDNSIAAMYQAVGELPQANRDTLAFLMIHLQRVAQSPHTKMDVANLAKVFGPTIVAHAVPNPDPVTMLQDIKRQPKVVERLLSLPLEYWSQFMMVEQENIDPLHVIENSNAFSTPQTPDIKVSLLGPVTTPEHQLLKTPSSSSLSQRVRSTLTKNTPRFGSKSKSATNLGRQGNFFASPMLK
# assay: blockers of MgcRacGAP-driven Rac1 GTP hydrolysis – biochemical, ADP Hunter fluorescence, primary and confirmatory, confirmation (AID 624330)
# Format: functional
The source made the active and inactive calls.

>  <compound>
CCOC(=O)c1nc(Nc2ccc(Nc3ccccc3)cc2)c2ccccc2n1

>  <IC50>
105 µM (active)

$$$$
>  <compound>
CCOc1cc(/C=N/NC(=O)C(=O)NCc2cccnc2)ccc1O

>  <IC50>
54.5 µM (active)

$$$$
>  <compound>
Nc1ccc(N2CCN(c3ccc(Cl)c(Cl)c3)CC2)cc1

>  <IC50>
18.1 µM (active)

$$$$
>  <compound>
COc1cc(/C=N/NC(=O)c2nc(-c3ccccc3)n(-c3ccccc3)n2)ccc1O

>  <IC50>
38.7 µM (active)

$$$$
>  <compound>
O=C1CCC(C2CCc3cc(O)ccc3C2)C1 (stereo unspecified)

>  <IC50>
70.4 µM (active)

$$$$
>  <compound>
CC(C(=O)Nc1ccc2c(c1)OCO2)N1CCN(C)CC1 (stereo unspecified)

>  <IC50>
65.3 µM (active)

$$$$
>  <compound>
COC(=O)C1=C(C)N(CC2CCCO2)C(=O)/C1=C\c1ccc(O)cc1 (stereo unspecified)

>  <IC50>
25 µM (active)

$$$$
>  <compound>
COc1cc(/C=C(\C#N)C(=O)Nc2ccc3c(c2)OCCO3)ccc1O

>  <IC50>
34 µM (active)

$$$$
>  <compound>
Cc1c(Cl)sn(-c2ccc(Cl)cc2)c1=O

>  <IC50>
49.6 µM (active)

$$$$
>  <compound>
COc1cc(/C=C/C(=O)OCC(=O)N(CC(C)C)c2c(N)n(Cc3ccccc3)c(=O)[nH]c2=O)ccc1O

>  <IC50>
65.7 µM (active)

$$$$
>  <compound>
CC1CC(C)(C)N(C(=O)CN2CCN(C)CC2)c2ccccc21 (stereo unspecified)

>  <IC50>
85.3 µM (active)

$$$$
